Attribution: patent US20240117062A1

measured_on: T1, BCMA protein on MM1R cells (UniProt Q02223 1-184, limits assumed)
T1 construct: whole, on cells; also called BCMA proteins on MM1R cell membrane surfaces
T1 sequence (looked up): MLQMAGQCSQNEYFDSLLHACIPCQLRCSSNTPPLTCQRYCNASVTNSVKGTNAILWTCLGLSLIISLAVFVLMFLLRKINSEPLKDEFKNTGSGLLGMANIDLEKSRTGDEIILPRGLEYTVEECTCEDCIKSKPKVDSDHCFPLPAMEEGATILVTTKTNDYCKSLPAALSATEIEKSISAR
test_protocol: flow cytometry on MM1R cells
parameter_measured: binding result

CA10 Variant 6 (antibody, V domains shown) VH: QVQLVESGGGVVQPGRSLRLSCAASGFTFSNFGMHWVRQAPGRGLEWVAVIWSDETNRYYADSVKGRFTVSRDNVKSTVYLQMNSLISEDTAVYYCARDQQYCSSDSCFTWFDPWGQGTLVTVSS VL: QTVVTQEPSLTVSPGGTVTLTCASSTGTVTPSNYANWVQQKPGQFPRGLIGDNNSRPPGTPARFSASLLGGKAALTLSGVQPEDEAEYYCALWFGNQWVFGGGTKLTVL
binds
CA10_parental (antibody, V domains shown, tested as a mAb purified on mAbSelect SuRe; also called CA10_V2_parental; CA10 WT) VH: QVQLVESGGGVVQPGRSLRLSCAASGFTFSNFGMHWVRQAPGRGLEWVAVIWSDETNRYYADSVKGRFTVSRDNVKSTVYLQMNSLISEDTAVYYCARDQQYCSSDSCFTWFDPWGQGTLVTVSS VL: QVVVTQESALTTSPGETVTLTCRSSTGTVTPSNYANWVQEKPDHFFTGLIGDNNSRPPGVPARFSASLIGDKAALTITGAQTEDEAMYFCALWFGNQWVFGGGTKVTVL
binds
